experiment: Cmax in BALB/c mouse plasma at 1 mg/kg, iv followed by po dosing at 3 mg/kg by LC-MS/MS analysis; assay type: ADME, organism-based
metric: Cmax (ng/mL)
Report as a plain number; the unit ng/mL is understood.

>>> recorded_result("COc1ncc(-c2cc(O[C@@H]3CCN(C(=O)C4CCOCC4)C3)c3cnn(C)c3n2)cc1NS(C)(=O)=O")
861
>>> recorded_result("COc1ncc(-c2cc(NC(=O)c3coc(CN4CCN(C(C)C)CC4)n3)c3cnn(C)c3n2)cc1NS(C)(=O)=O")
19.9

Alright, here's another molecule for you.
Query block: Return reported Cmax; argument: COc1ncc(-c2cc(O[C@@H]3CCN(Cc4c(C)nn(C)c4C)C3)c3cnn(C)c3n2)cc1NS(C)(=O)=O
Result block: 298

---

Each item that follows carries a reported Ratio IC50.
organism: Homo sapiens; assay: Selectivity ratio of IC50 for recombinant human N-terminal His6-tagged full length PI3K p110alpha/untagged recombinant full length human p85alpha to IC50 for recombinant human full length N-terminal His6-tagged PI3K p110delta/untagged recombinant full length human p85alpha expressed in baculovirus infected Sf21 insect cells
Respond using a number only.

>>> recorded_result("COc1ncc(-c2cc(NC(=O)c3coc(CN4CCN(C(C)C)CC4)n3)c3cnn(C)c3n2)cc1NS(C)(=O)=O")
40
>>> recorded_result("COc1ncc(-c2cc(O[C@@H]3CCN(CC4CCOCC4)C3)c3cnn(C)c3n2)cc1NS(C)(=O)=O")
29
>>> recorded_result("COc1ncc(-c2cc(O[C@@H]3CCN(Cc4c(C)nn(C)c4C)C3)c3cnn(C)c3n2)cc1NS(C)(=O)=O")
320
>>> recorded_result("COc1ncc(-c2cc(O[C@@H]3CCN(C(=O)CC4CCOCC4)C3)c3cnn(C)c3n2)cc1NS(C)(=O)=O")
17
>>> recorded_result("COc1ncc(-c2cc(NC(=O)c3coc(CN4CCN(Cc5cccnc5)CC4)n3)c3cnn(C)c3n2)cc1NS(C)(=O)=O")
290

Query block: Return reported Ratio IC50; argument: COc1ncc(-c2cc(O[C@@H]3CCN(S(=O)(=O)C4CCOCC4)C3)c3cnn(C)c3n2)cc1NS(C)(=O)=O
Result block: 2

Query block: Return reported Ratio IC50; argument: COc1ncc(-c2cc(NC(=O)c3coc(CN4CCN(CCN5CCOCC5)CC4)n3)c3cnn(C)c3n2)cc1NS(C)(=O)=O
Result block: 250

Query block: Return reported Ratio IC50; argument: COc1ncc(-c2cc(O[C@@H]3CCN(Cc4cnn(C)c4)C3)c3cnn(C)c3n2)cc1NS(C)(=O)=O
Result block: 71

Query block: Return reported Ratio IC50; argument: COc1ncc(-c2cc(O[C@@H]3CCN(C4CCOCC4)C3)c3cnn(C)c3n2)cc1NS(C)(=O)=O
Result block: 21

Query block: Return reported Ratio IC50; argument: COc1ncc(-c2cc(N[C@@H]3CCN(C(=O)C4CCOCC4)C3)c3cnn(C)c3n2)cc1NS(C)(=O)=O
Result block: 3.2

---

assay: Stability in BALB/c mouse plasma assessed as parent compound remaining at 2 uM after 16 hrs in absence of NaF by LC-MS/MS analysis; format: ADME, cell-free; conditions: read-out: Stability
Each item that follows carries a reported remaining at 16 h, 2 µM.
Report as a plain number; the unit % is understood.

>>> recorded_result("COc1ncc(-c2cc(NC(=O)c3coc(CN4CCN(CCN5CCOCC5)CC4)n3)c3cnn(C)c3n2)cc1NS(C)(=O)=O")
17.6
>>> recorded_result("COc1ncc(-c2cc(NC(=O)c3coc(CN4CCN(C(C)C)CC4)n3)c3cnn(C)c3n2)cc1NS(C)(=O)=O")
0.4
>>> recorded_result("COc1ncc(-c2cc(O[C@@H]3CCN(C(=O)C4CCOCC4)C3)c3cnn(C)c3n2)cc1NS(C)(=O)=O")
109

Query block: Return reported remaining at 16 h, 2 µM; argument: COc1ncc(-c2cc(NC(=O)c3coc(CN4CCN(Cc5cccnc5)CC4)n3)c3cnn(C)c3n2)cc1NS(C)(=O)=O
Result block: 0.5

---

species on record: Homo sapiens; assay: Selectivity ratio of IC50 for recombinant human N-terminal His6-tagged full length PI3K p110alpha/untagged recombinant full length human p85alpha to IC50 for recombinant human full length N-terminal His6-tagged PI3K p110delta/untagged recombinant full length human p85alpha expressed in baculovirus infected Sf21 insect cells
Each item that follows carries a reported Ratio IC50.
Respond using a number only.

The examples below pair each entry with its known result.
>>> recorded_result("COc1ncc(-c2cc(O[C@@H]3CCN(C(=O)c4ccccc4)C3)c3cnn(C)c3n2)cc1NS(C)(=O)=O")
5.3
>>> recorded_result("COc1ncc(-c2cc(O[C@@H]3CCN(C(=O)C4CCOCC4)C3)c3cnn(C)c3n2)cc1NS(C)(=O)=O")
92

Query block: Return reported Ratio IC50; argument: COc1ncc(-c2cc(O[C@@H]3CCN(Cc4ccccc4)C3)c3cnn(C)c3n2)cc1NS(C)(=O)=O
Result block: 160

Query block: Return reported Ratio IC50; argument: COc1ncc(-c2cc(O[C@H]3CCN(C(=O)C4CCOCC4)C3)c3cnn(C)c3n2)cc1NS(C)(=O)=O
Result block: 13

---

Each item that follows carries a reported Vd.
test: Volume of distribution at steady state in BALB/c mouse plasma at 1 mg/kg, iv followed by po dosing at 3 mg/kg by LC-MS/MS analysis; format: ADME, organism-based; conditions: read-out: Vdss

>>> recorded_result("COc1ncc(-c2cc(O[C@@H]3CCN(Cc4c(C)nn(C)c4C)C3)c3cnn(C)c3n2)cc1NS(C)(=O)=O")
"2.82 L/kg"
>>> recorded_result("COc1ncc(-c2cc(NC(=O)c3coc(CN4CCN(C(C)C)CC4)n3)c3cnn(C)c3n2)cc1NS(C)(=O)=O")
"4.03 L/kg"

Query block: Return reported Vd; argument: COc1ncc(-c2cc(O[C@@H]3CCN(C(=O)C4CCOCC4)C3)c3cnn(C)c3n2)cc1NS(C)(=O)=O
Result block: 2.37 L/kg

---

biological target: PI3-kinase p110-alpha/p85-alpha (Homo sapiens, UniProt P42336); experiment: Inhibition of recombinant human N-terminal His6-tagged full length PI3K p110alpha/untagged recombinant full length human p85alpha expressed in baculovirus infected Sf21 insect cells using phosphatidylinositol as substrate after 3 hrs by kinase glo reagent based luminescence assay
Sequence (P27986 whole entry): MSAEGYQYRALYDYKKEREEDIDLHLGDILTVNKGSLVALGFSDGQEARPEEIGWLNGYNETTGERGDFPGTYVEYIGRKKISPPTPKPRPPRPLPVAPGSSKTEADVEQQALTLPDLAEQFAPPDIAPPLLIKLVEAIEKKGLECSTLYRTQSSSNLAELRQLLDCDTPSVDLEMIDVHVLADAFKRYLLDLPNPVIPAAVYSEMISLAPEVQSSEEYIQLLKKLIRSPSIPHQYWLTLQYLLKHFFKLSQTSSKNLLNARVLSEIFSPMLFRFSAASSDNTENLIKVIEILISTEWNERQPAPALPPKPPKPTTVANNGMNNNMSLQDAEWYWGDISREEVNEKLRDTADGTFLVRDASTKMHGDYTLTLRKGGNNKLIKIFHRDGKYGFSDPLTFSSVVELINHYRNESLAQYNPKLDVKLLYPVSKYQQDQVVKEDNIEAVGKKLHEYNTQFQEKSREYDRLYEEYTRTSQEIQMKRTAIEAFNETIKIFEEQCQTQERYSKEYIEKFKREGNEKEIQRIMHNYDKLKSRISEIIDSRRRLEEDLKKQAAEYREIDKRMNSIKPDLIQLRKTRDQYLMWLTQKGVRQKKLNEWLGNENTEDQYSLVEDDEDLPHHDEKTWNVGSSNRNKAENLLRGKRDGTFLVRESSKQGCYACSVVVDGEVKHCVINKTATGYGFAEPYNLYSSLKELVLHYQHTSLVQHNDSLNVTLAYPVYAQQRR
Sequence (P42336 whole entry): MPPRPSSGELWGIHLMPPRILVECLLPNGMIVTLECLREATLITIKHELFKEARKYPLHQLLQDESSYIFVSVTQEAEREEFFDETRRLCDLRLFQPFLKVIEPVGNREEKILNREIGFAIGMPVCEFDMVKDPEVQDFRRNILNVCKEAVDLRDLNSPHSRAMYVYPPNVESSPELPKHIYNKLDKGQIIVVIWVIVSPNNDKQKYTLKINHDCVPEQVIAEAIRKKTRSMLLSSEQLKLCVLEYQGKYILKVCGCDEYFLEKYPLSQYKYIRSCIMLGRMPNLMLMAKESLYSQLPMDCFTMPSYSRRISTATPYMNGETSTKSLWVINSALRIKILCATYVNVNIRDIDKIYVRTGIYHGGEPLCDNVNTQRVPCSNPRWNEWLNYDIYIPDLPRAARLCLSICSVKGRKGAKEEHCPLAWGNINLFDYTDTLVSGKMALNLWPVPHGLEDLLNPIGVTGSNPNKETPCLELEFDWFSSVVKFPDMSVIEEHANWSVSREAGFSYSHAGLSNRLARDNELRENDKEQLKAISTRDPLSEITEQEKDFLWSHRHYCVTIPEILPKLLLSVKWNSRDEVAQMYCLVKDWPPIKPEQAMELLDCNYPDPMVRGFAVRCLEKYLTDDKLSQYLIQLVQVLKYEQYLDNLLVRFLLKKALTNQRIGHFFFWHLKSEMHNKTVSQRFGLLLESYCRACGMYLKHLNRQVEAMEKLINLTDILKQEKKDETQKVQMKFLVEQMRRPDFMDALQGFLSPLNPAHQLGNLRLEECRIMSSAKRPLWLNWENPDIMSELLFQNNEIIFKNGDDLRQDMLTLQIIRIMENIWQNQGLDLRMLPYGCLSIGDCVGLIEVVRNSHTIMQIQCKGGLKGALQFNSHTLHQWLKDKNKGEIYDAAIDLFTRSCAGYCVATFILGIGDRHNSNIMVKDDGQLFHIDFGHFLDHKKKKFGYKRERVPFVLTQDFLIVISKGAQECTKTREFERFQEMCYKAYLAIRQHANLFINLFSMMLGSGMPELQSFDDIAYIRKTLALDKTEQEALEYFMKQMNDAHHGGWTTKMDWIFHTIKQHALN
metric: pIC50
Just the number, please; pIC50 means minus log10 of the concentration in mol/L.

Query block: Return reported pIC50; argument: COc1ncc(-c2cc(NC(=O)c3coc(CN4CCN(C(C)C)CC4)n3)c3cnn(C)c3n2)cc1NS(C)(=O)=O
Result block: 6.48

---

test: Half life in BALB/c mouse plasma at 1 mg/kg, iv followed by po dosing at 3 mg/kg by LC-MS/MS analysis; type: ADME, organism-based
Each item that follows carries a reported half-life.
Report as a plain number; the unit h is understood.

The examples below pair each entry with its known result.
>>> recorded_result("COc1ncc(-c2cc(O[C@@H]3CCN(Cc4c(C)nn(C)c4C)C3)c3cnn(C)c3n2)cc1NS(C)(=O)=O")
1.41
>>> recorded_result("COc1ncc(-c2cc(NC(=O)c3coc(CN4CCN(C(C)C)CC4)n3)c3cnn(C)c3n2)cc1NS(C)(=O)=O")
0.367

Alright, here's another compound for you.
Query block: Return reported half-life; argument: COc1ncc(-c2cc(O[C@@H]3CCN(C(=O)C4CCOCC4)C3)c3cnn(C)c3n2)cc1NS(C)(=O)=O
Result block: 2.51

---

biological target: PI3K p110 beta/p85 alpha (Homo sapiens); assay: Inhibition of recombinant human full length N-terminal His6-tagged PI3K p110beta/untagged recombinant full length human p85alpha expressed in baculovirus infected Sf21 insect cells using PIP2 as substrate after 35 to 40 mins by HTRF assay
Sequence (P27986 whole entry): as the sequence (P27986 whole entry) above
Sequence (P42338 whole entry): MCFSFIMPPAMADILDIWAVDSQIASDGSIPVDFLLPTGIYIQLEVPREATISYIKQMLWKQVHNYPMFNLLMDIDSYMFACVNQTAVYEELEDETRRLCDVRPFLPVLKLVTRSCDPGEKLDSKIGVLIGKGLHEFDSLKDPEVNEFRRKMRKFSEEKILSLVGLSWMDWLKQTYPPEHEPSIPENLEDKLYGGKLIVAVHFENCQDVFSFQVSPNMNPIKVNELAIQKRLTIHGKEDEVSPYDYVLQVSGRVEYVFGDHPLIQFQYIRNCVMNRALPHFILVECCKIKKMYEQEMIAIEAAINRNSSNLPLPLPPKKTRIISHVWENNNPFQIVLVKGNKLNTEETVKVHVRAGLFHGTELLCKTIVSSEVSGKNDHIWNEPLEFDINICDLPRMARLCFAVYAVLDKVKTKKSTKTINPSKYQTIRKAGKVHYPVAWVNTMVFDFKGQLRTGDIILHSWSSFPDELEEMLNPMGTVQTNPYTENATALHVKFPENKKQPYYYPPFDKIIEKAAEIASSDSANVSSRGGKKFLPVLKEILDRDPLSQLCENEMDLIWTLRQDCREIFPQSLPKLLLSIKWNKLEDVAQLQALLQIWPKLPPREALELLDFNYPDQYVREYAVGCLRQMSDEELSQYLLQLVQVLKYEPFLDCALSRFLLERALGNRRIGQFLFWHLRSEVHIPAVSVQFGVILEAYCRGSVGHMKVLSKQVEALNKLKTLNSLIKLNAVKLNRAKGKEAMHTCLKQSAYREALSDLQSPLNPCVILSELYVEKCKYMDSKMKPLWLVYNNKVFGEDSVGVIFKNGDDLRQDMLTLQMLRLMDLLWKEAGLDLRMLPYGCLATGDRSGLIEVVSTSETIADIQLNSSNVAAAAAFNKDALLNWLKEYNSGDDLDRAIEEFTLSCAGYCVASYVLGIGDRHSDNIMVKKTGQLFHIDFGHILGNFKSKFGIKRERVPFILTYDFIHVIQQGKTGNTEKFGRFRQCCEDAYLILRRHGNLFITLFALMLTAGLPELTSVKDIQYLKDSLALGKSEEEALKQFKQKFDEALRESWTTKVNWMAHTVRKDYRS
metric: pIC50
Just the number, please; pIC50 means minus log10 of the concentration in mol/L.

Query block: Return reported pIC50; argument: COc1ncc(-c2cc(O[C@@H]3CCN(Cc4c(C)nn(C)c4C)C3)c3cnn(C)c3n2)cc1NS(C)(=O)=O
Result block: 6.28

---

assay: Stability in BALB/c mouse plasma assessed as parent compound remaining at 2 uM after 16 hrs in presence of NaF by LC-MS/MS analysis; assay type: ADME, cell-free; conditions: read-out: Stability
metric: remaining at 16 h, 2 µM (%)
Report as a plain number; the unit % is understood.

>>> recorded_result("COc1ncc(-c2cc(NC(=O)c3coc(CN4CCN(C(C)C)CC4)n3)c3cnn(C)c3n2)cc1NS(C)(=O)=O")
79.7
>>> recorded_result("COc1ncc(-c2cc(NC(=O)c3coc(CN4CCN(CCN5CCOCC5)CC4)n3)c3cnn(C)c3n2)cc1NS(C)(=O)=O")
92.3

Alright, here's another molecule for you.
Query block: Return reported remaining at 16 h, 2 µM; argument: COc1ncc(-c2cc(NC(=O)c3coc(CN4CCN(Cc5cccnc5)CC4)n3)c3cnn(C)c3n2)cc1NS(C)(=O)=O
Result block: 90.3
